Tested on: K. pneumoniae ATCC BAA-1705 KPC-2(+)
Assay: MIC of tested agent alone, microdilution
Format: cell-based
Details: Klebsiella pneumoniae, ATCCBAA1705; read-out: MIC of agent alone
value_kind: MIC

OB(O)c1ccsc1B(O)O: > 400 µg/mL
OB(O)c1ccc(B(O)O)cc1: > 400 µg/mL
OB(O)c1cc(F)c(B(O)O)c(F)c1F: 100 µg/mL
OB(O)c1cc(C(F)(F)F)cc(B(O)O)c1F: > 400 µg/mL
OB(O)c1ccccc1S: > 200 µg/mL

QUERY: Quick check: MIC of OB(O)c1c(F)c(F)c(F)c(F)c1B(O)O ?
RESULT: > 400 µg/mL

###

Test system: C. krusei ATCC 6258
Assay: antifungal activity (disc-diffusion, MIC, MFC)
Assay type: cell-based, Candida krusei
Conditions: Pichia kudriavzevii, ATCC6258; 0.4 mg per disc, 9 mm disc (fluconazole 0.025 mg, 6 mm disc); - no zone; read-out: Diameter of inhibition zone
value_kind: zone of inhibition at 0.4 mg/disc (mm)
Answer with a number only, understood to be in mm.

The cases that follow already have their zone of inhibition at 0.4 mg/disc on record.
OB(O)c1ccc(C(F)(F)F)cc1B(O)O: 23
O=Cc1cc(F)ccc1B(O)O: 28
OB(O)c1ccccc1S: 16
OB(O)c1cc(F)ccc1F: 15
OC(Cn1cncn1)(Cn1cncn1)c1ccc(F)cc1F [Fl, fluconazole, reference compound]: 16
OB(O)c1cc(F)c(B(O)O)c(F)c1F: 19

QUERY: Request: zone of inhibition at 0.4 mg/disc, test system C. krusei ATCC 6258, entry OB(O)c1ccc(B(O)O)c(F)c1
RESULT: 22

QUERY: Request: zone of inhibition at 0.4 mg/disc, test system C. krusei ATCC 6258, entry OB(O)c1cc(Br)c(B(O)O)cc1Br
RESULT: 22

QUERY: Request: zone of inhibition at 0.4 mg/disc, test system C. krusei ATCC 6258, entry OB(O)c1cc(I)c(B(O)O)cc1I
RESULT: 23

QUERY: Request: zone of inhibition at 0.4 mg/disc, test system C. krusei ATCC 6258, entry OB(O)c1cc(F)c(B(O)O)cc1F
RESULT: 16

###

Test system: P. aeruginosa MUW 700 cAmpC-positive
Test: checkerboard microdilution, antibiotic plus tested agent
Type: cell-based, Pseudomonas aeruginosa
In this section, each of the compounds is paired with its reported The lowest FICI with ceftazidime.
Give the value as a plain number.

OB(O)c1cc(B(O)O)c(B(O)O)s1: 0.27
OB(O)c1ccc(B(O)O)c(F)c1F: 0.17
OB(O)c1ccsc1B(O)O: 0.15
OB(O)c1cc(F)c(B(O)O)c(F)c1F: 0.27
OB(O)c1cc(F)c(F)c(B(O)O)c1: 0.26

Note: attention shifts to another entry.
QUERY: Quick check: The lowest FICI with ceftazidime of OB(O)c1ccc(B(O)O)c(F)c1 ?
RESULT: 0.14

###

In this section, each of the compounds is paired with its reported viability at 72 h, 25 mg/L.
Assay: MTT-based viability assay
Assay type: cell-based
Conditions: human, MRC-5 human fibroblasts; 25 mg/L, 72 h; read-out: Viability of MRC-5 cells (% of viable cells ± SD)
Answer with a number only, understood to be in %.

OB(O)c1cc(B(O)O)c(B(O)O)s1: 97.9
OB(O)c1ccc(C(F)(F)F)cc1B(O)O: 92.9

QUERY: Quick check: viability at 72 h, 25 mg/L of OB(O)c1cc(B(O)O)c(F)cc1F ?
RESULT: 83.6

QUERY: Quick check: viability at 72 h, 25 mg/L of OB(O)c1cc(F)cc(B(O)O)c1 ?
RESULT: 87.9

QUERY: Quick check: viability at 72 h, 25 mg/L of OB(O)c1cc(Br)c(B(O)O)cc1Br ?
RESULT: 114

QUERY: Quick check: viability at 72 h, 25 mg/L of O=Cc1cc(F)ccc1B(O)O ?
RESULT: 6.4

QUERY: Quick check: viability at 72 h, 25 mg/L of OB(O)c1c(F)c(F)c(B(O)O)c(F)c1F ?
RESULT: 107

QUERY: Quick check: viability at 72 h, 25 mg/L of OB(O)c1cc(C(F)(F)F)cc(B(O)O)c1F ?
RESULT: 84.4

QUERY: Quick check: viability at 72 h, 25 mg/L of OB(O)c1cc(F)c(B(O)O)c(F)c1 ?
RESULT: 104

###

Tested on: K. pneumoniae 83 KPC-3(+), CTX-M-3(+)
Assay: MIC of tested agent alone, microdilution
Format: cell-based
Conditions: Klebsiella pneumoniae; read-out: MIC of agent alone
value_kind: MIC

OB(O)c1cc(F)c(B(O)O)cc1F: 200 µg/mL
OB(O)c1cc(C(F)(F)F)cc(B(O)O)c1F: > 400 µg/mL
OB(O)c1cc(B(O)O)c(B(O)O)s1: > 400 µg/mL
OB(O)c1ccc(B(O)O)c(B(O)O)c1: > 400 µg/mL
OB(O)c1ccc(C(F)(F)F)cc1B(O)O: > 400 µg/mL
OB(O)c1ccc(B(O)O)cc1: > 400 µg/mL
OB(O)c1c(F)c(F)c(F)c(F)c1B(O)O: > 400 µg/mL
OB(O)c1ccc(Br)c(B(O)O)c1: > 400 µg/mL
OB(O)c1cccc(F)c1B(O)O: > 400 µg/mL
OB(O)c1ccc(F)cc1B(O)O: > 400 µg/mL

Note: attention shifts to another entry.
QUERY: Quick check: MIC of OB(O)c1ccccc1B(O)O ?
RESULT: 400 µg/mL

###

Tested on: S. cerevisiae ATCC 9763
Test: antifungal activity (disc-diffusion, MIC, MFC)
Assay type: cell-based
Conditions: Saccharomyces cerevisiae, ATCC9763; fluconazole by Etest
In this section, each of the molecules is paired with its reported MIC.

The cases that follow already have their MIC on record.
C[Si](C)(C)c1cc(B(O)O)c([Si](C)(C)C)cc1B(O)O [1k]: > 100 µg/mL
OB(O)c1cc(C(F)(F)F)c(B(O)O)cc1C(F)(F)F [1h]: > 400 µg/mL
OB(O)c1cc(F)cc(B(O)O)c1 [2b]: > 400 µg/mL
OB(O)c1ccc(C(F)(F)F)cc1B(O)O [3e]: 50 µg/mL
OB(O)c1cc(B(O)O)c(F)cc1F [2c]: > 400 µg/mL
OB(O)c1cc(F)c(B(O)O)c(F)c1F [1f]: 50 µg/mL
OB(O)c1cc(B(O)O)cc(B(O)O)c1 [4a, benzene-1,3,5-triboronic acid]: > 400 µg/mL
OB(O)c1cc(F)c(B(O)O)c(F)c1 [1d]: 200 µg/mL

QUERY: Quick check: MIC of OB(O)c1ccccc1B(O)O [3a, phenylene-1,2-diboronic acid] ?
RESULT: 25 µg/mL

QUERY: Quick check: MIC of OB(O)c1c(F)c(F)c(B(O)O)c(F)c1F [1g] ?
RESULT: > 400 µg/mL

QUERY: Quick check: MIC of OB(O)c1cc(F)c(F)c(B(O)O)c1 [2d] ?
RESULT: > 400 µg/mL

###

Test system: K. pneumoniae 81 KPC-3-positive
Assay: checkerboard microdilution, antibiotic plus tested agent
Format: cell-based, Klebsiella pneumoniae
Method: To examine the ability of tested agents to inhibit various carbapenemases and AmpC-enzymes, their synergy with antibiotics against β-lactamase-producing strains was assessed by checkerboard microdilution assay, with slight modification. […] Parallel, MICs of tested agents and PBA alone were determined by the microdilution assay. Following the incubation, antibiotic MICs in the presence of each agent’s concentration were determined. […]
value_kind: The lowest FICI with ERT
Give the value as a plain number.

The cases that follow already have their The lowest FICI with ERT on record.
OB(O)c1ccccc1B(O)O: 0.07
OB(O)c1ccc(B(O)O)c(F)c1: 0.27
OB(O)c1ccccc1 [PBA, phenylboronic acid, reference compound]: 0.51
OB(O)c1cc(F)c(B(O)O)cc1F: 0.52
OB(O)c1ccc(F)cc1B(O)O: 0.15

QUERY: Quick check: The lowest FICI with ERT of OB(O)c1cc(F)ccc1F ?
RESULT: 0.33

QUERY: Quick check: The lowest FICI with ERT of OB(O)c1cc(F)c(B(O)O)c(F)c1 ?
RESULT: 0.17

QUERY: Quick check: The lowest FICI with ERT of OB(O)c1ccc(B(O)O)cc1 ?
RESULT: 0.08

###

In this section, each of the compounds is paired with its reported zone of inhibition at 0.4 mg/disc.
Test system: S. aureus ATCC 6538P
Assay: direct antimicrobial activity (disc-diffusion, MIC, MBC)
Type: cell-based
Details: Staphylococcus aureus, ATCC6538P; 0.4 mg per disc, 9 mm disc (linezolid 0.03 mg, 6 mm disc); - no zone; read-out: Diameter of inhibition zone
Answer with a number only, understood to be in mm.

The cases that follow already have their zone of inhibition at 0.4 mg/disc on record.
OB(O)c1ccc(F)cc1B(O)O [3c]: 13
OB(O)c1cc(F)cc(B(O)O)c1 [2b]: 14
OB(O)c1ccc(B(O)O)c(B(O)O)c1 [4b, benzene-1,2,4-triboronic]: 20
OB(O)c1cc(F)c(F)c(B(O)O)c1 [2d]: 22
OB(O)c1cc(B(O)O)c(F)cc1F [2c]: 20

QUERY: Quick check: zone of inhibition at 0.4 mg/disc of OB(O)c1cc(C(F)(F)F)c(B(O)O)cc1C(F)(F)F [1h] ?
RESULT: 13

QUERY: Quick check: zone of inhibition at 0.4 mg/disc of OB(O)c1ccc(B(O)O)c(F)c1F [1c] ?
RESULT: 22

QUERY: Quick check: zone of inhibition at 0.4 mg/disc of OB(O)c1ccc(B(O)O)c(F)c1 [1b] ?
RESULT: 14

QUERY: Quick check: zone of inhibition at 0.4 mg/disc of OB(O)c1cc(F)c(B(O)O)cc1F [1e] ?
RESULT: 20

QUERY: Quick check: zone of inhibition at 0.4 mg/disc of OB(O)c1cc(F)c(B(O)O)c(F)c1F [1f] ?
RESULT: 17

QUERY: Quick check: zone of inhibition at 0.4 mg/disc of OB(O)c1cccc(B(O)O)c1 [2a] ?
RESULT: 20

QUERY: Quick check: zone of inhibition at 0.4 mg/disc of O=Cc1cc(F)ccc1B(O)O [7b] ?
RESULT: 19

QUERY: Quick check: zone of inhibition at 0.4 mg/disc of OB(O)c1cc(C(F)(F)F)cc(B(O)O)c1F [2e] ?
RESULT: 29
